These data points were gathered from the supplement of paper PMC8728848.

experimental.system: Fuc(a1-2)Gal(b1-4)Glc
assay.details: glycan array binding signal (z-score within array); higher = stronger binding
run.conditions: glycan notation: IUPAC condensed, linker removed
About 410 targets per protein were measured; listed, in parts, are those with the strongest signals and a random draw of the rest.
glycan array binding signal (z-score) vs -0.04: at or above is fulfilled, below is not fulfilled.

Query string: Is reported glycan array binding signal (z-score) greater than or equal to -0.04 here: LSECtin (Homo sapiens), Q6UXB4 (protein) MEQESALRELRERVTQGLAEAGRGREDVRTELFRALEAVRLQNNSCEPCPTSWLSFEGSCYFFSVPKTTWAAAQDHCADASAHLVIVGGLDEQGFLTRNTRGRGYWLGLRAVRHLGKVQGYQWVDGVSLSFSHWNQGEPNDAWGRENCVMMLHTGLWNDAPCDSEKDGWICEKKAQLLTPPSALEPRPLQHVVSWGLLTSLAPGADCQRVFSSSSTAAESQKHLAQHSPVQPSAWALGPPCRPHPNSTHADPT
Result string: fulfilled
